target-desc: placental αvβ3 (Homo sapiens, UniProt P05106+P06756)
Construct: purified active GP IIb-IIIa (Calbiochem) or olacental αvβ3 at 0.5 μg/ml; from tissue; host or cells: placenta
Sequence (P06756 31-889 limits assumed): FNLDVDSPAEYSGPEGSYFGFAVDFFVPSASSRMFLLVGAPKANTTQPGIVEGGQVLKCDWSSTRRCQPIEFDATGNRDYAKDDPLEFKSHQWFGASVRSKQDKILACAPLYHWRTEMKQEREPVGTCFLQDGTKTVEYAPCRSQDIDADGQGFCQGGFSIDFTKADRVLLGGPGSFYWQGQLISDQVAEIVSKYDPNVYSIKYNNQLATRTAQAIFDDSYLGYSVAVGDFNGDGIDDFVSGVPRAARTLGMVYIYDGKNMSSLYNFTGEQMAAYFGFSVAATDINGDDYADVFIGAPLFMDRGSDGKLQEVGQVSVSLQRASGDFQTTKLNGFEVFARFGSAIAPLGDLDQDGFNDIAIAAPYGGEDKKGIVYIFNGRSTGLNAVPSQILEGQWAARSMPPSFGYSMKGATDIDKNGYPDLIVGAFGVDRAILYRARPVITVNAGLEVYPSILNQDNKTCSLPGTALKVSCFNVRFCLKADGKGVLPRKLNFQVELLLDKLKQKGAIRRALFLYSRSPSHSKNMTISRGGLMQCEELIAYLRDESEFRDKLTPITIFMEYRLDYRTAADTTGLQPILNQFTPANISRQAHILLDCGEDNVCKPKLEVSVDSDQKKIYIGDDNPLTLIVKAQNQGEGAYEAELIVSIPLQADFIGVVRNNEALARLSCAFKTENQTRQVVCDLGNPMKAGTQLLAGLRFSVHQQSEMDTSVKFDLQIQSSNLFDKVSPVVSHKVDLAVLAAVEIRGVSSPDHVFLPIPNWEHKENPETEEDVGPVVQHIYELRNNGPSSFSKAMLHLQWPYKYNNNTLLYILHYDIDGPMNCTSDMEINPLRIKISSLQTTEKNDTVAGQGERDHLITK
Sequence (P06756 891-1048 partner limits assumed): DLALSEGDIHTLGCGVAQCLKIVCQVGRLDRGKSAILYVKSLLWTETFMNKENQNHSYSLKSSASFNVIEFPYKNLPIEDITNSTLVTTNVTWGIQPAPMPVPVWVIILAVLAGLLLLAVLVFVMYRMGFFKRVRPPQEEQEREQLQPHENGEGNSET
Sequence (P05106 27-788): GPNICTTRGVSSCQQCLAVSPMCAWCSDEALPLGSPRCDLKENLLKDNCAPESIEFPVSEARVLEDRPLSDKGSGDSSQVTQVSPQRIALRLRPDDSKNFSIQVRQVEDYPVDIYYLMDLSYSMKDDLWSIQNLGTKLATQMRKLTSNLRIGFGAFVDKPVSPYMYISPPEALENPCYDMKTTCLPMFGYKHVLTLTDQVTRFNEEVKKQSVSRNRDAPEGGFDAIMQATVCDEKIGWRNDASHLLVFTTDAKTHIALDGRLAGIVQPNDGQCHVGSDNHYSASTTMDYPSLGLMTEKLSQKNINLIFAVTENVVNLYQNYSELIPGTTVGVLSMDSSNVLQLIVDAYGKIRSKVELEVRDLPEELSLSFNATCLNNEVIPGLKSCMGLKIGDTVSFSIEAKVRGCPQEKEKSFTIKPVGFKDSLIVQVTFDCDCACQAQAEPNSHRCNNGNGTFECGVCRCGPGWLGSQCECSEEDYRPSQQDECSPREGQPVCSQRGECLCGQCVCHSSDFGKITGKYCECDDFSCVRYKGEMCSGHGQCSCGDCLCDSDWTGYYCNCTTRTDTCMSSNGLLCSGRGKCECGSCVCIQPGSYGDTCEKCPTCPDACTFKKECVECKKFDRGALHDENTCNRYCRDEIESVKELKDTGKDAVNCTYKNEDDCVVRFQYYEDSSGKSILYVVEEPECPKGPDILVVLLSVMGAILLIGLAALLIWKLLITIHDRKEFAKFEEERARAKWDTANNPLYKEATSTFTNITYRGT
measurement-notes: Fibrinogen binding to immobilized αvβ3
run-conditions: biotinylated-fibrinogen 10 nM, immobilized placental αvβ3; read-out: IC50 values for the fibrinogen binding assay αvβ3
Where a name gives a salt, the structure may show the parent alone.
quantity-measured: IC50 (nM)
Write the number in nM without appending the unit.

| molecule | IC50 (nM) |
| --- | --- |
| N=C(N)NCCCOc1ccc2ccc(NC(=O)NC(CC(=O)O)c3cccnc3)c(=O)n2c1 (racemic) | 1200 |

Challenge: Checklist item: IC50 tested on placental αvβ3 (Homo sapiens, UniProt P05106+P06756), entry NCCOc1ccc2cc(C(=O)NC[C@H](NS(=O)(=O)c3ccccc3)C(=O)O)cc(=O)n2c1 [Compound XIX, Trifluoroacetic Acid Salt] , value?
Response given: 2000

###

target-desc: placental αvβ3 (Homo sapiens, UniProt P05106+P06756)
Construct: purified active GP IIb-IIIa (Calbiochem) or olacental αvβ3 at 0.5 μg/ml; from tissue; host or cells: placenta
measurement-notes: Fibrinogen binding to immobilized αvβ3
run-conditions: biotinylated-fibrinogen 10 nM, immobilized placental αvβ3; read-out: IC50 values for the fibrinogen binding assay αvβ3
Structures can show the parent of a compound that is named as a salt.
Classify by IC50. Ranges: range 1 = under 1 µM, range 2 = from 1 µM up to 20 µM, range 3 = 20 µM and over

Past entries and their recorded results:
| compound | group-label |
| --- | --- |
| NCCNc1ccn2c(=O)c(C(=O)NC(CC(=O)O)c3ccccc3)ccc2c1 (racemic) | range 2 |
| CN(CCN(C)c1ccn2c(=O)c(C(=O)NC(CC(=O)O)c3ccccc3)ccc2c1)C(=N)N (racemic) [Compound XXXIX, Trifluoroacetic Acid Salt] | range 3 |
| N=C(N)NCCCCOc1ccn2c(=O)cc(C(=O)NC[C@H](NS(=O)(=O)c3ccccc3)C(=O)O)cc2c1 [Compound XXXIII, Hydrochloride] | range 2 |
| NCc1ccc2cc(C(=O)NC[C@H](NS(=O)(=O)c3ccccc3)C(=O)O)cc(=O)n2c1 (stereo in doubt) [Compound XXVI, Trifluoroacetic Acid Salt] | range 1 |
| N=C(N)NCCCOc1ccc2cc(C(=O)NCC(Nc3ncccn3)C(=O)O)cc(=O)n2c1 (stereo not shown) [Compound XXII, Hydrochloride] | range 1 |

Now let's try a different one.
Challenge: Which class does N=C(N)NCc1ccc2cc(C(=O)NC(CC(=O)O)c3cccnc3)cc(=O)n2c1 (racemic) [Compound XLIII, bis-trifluoroacetic acid salt] fall in?
Response given: range 1

###

target-desc: GP IIb-IIIa (αIIbβ3) (Homo sapiens, UniProt P05106+P08514)
Construct: purchased Calbiochem
Sequence (P08514 32-887 limits assumed): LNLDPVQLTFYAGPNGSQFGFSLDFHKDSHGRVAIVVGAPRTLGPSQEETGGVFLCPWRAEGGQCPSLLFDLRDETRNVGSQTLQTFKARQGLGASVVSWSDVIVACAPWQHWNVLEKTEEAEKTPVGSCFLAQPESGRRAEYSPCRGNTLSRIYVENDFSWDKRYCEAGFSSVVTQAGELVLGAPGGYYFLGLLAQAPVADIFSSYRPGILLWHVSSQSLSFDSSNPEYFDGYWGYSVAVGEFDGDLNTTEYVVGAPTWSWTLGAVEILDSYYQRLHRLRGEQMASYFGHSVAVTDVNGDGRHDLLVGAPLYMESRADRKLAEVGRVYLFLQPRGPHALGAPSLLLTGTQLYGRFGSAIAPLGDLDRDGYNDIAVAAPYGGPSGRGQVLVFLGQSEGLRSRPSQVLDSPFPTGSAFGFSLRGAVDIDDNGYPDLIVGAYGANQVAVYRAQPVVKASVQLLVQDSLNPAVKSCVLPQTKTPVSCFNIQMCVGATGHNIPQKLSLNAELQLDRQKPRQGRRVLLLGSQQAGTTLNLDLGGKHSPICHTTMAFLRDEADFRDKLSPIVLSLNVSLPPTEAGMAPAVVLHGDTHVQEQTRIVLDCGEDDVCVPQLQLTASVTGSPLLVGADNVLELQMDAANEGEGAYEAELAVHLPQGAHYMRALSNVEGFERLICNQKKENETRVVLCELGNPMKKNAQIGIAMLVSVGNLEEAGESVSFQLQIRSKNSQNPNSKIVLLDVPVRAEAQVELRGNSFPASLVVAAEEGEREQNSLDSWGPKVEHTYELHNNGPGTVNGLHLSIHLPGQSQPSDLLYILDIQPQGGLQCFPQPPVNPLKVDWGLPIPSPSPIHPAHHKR
Sequence (P08514 891-1039 partner limits assumed): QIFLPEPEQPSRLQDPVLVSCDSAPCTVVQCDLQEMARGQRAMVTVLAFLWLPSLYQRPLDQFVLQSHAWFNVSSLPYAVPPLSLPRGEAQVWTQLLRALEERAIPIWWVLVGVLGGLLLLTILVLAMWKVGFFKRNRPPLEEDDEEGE
Sequence (P05106 27-788): as the sequence (P05106 27-788) above
measurement-notes: Fibrinogen binding to immobilized GP IIb-IIIa (αIIbβ3)
run-conditions: biotinylated-fibrinogen 10 nM, immobilized GP IIb-IIIa; read-out: IC50 values for the fibrinogen binding assay αIIbβ3
Counter-ions that a name gives are not always drawn.
Rule for this label: Condition met means IC50 is less than 100 nM; Condition not met means IC50 is at least 100 nM.

Past entries and their recorded results:
| compound | group-label |
| --- | --- |
| O=C(NC[C@H](NS(=O)(=O)c1ccccc1)C(=O)O)c1cc(=O)n2cc(OCCCNc3ncccn3)ccc2c1 | Condition not met |
| NCCCOc1ccn2c(=O)cc(C(=O)NC[C@H](NS(=O)(=O)c3ccccc3)C(=O)O)cc2c1 [Compound XXX, Trifluoroacetic Acid Salt] | Condition not met |
| O=C(NC[C@H](NS(=O)(=O)c1ccccc1)C(=O)O)c1cc(=O)n2cc(CNc3ncccn3)ccc2c1 [Compound XLVI, trifluoroacetic acid salt] | Condition not met |

Now let's try a different one.
Challenge: IC50 strictly < 100 nM for this compound? NCCCCCOc1ccn2c(=O)cc(C(=O)NC[C@H](NS(=O)(=O)c3ccccc3)C(=O)O)cc2c1 [Compound XXXIV, Trifluoroacetic Acid Salt]
Response given: Condition met

###

target-desc: placental αvβ3 (Homo sapiens, UniProt P05106+P06756)
Construct: purified active GP IIb-IIIa (Calbiochem) or olacental αvβ3 at 0.5 μg/ml; from tissue; host or cells: placenta
measurement-notes: Fibrinogen binding to immobilized αvβ3
run-conditions: biotinylated-fibrinogen 10 nM, immobilized placental αvβ3; read-out: IC50 values for the fibrinogen binding assay αvβ3
Structures can show the parent of a compound that is named as a salt.
quantity-measured: IC50 (µM)
Write the number in µM without appending the unit.

These recorded examples may help you get a feel for the data.
| compound | IC50 / µM |
| --- | --- |
| N=C(N)NCCCOc1ccn2c(=O)cc(C(=O)NC[C@H](NS(=O)(=O)c3ccccc3)C(=O)O)cc2c1 [Compound XXXI, Hydrochloride] | 9.4 |
| NCCCOc1ccc2ccc(NC(=O)NC[C@H](NS(=O)(=O)c3ccccc3)C(=O)O)c(=O)n2c1 [Compound VII] | 92 |

The record that follows has no IC50 shown yet.
Challenge: Which value of IC50 has been reported for NCCCOc1ccc2cc(C(=O)NC[C@H](Nc3ncccn3)C(=O)O)cc(=O)n2c1 (stereo in doubt) [Compound XXI, Hydrochloride] in the records?
Response given: 14

###

# IC50 per record follows
target-desc: placental αvβ3 (Homo sapiens, UniProt P05106+P06756)
Construct: purified active GP IIb-IIIa (Calbiochem) or olacental αvβ3 at 0.5 μg/ml; from tissue; host or cells: placenta
measurement-notes: Fibrinogen binding to immobilized αvβ3
run-conditions: biotinylated-fibrinogen 10 nM, immobilized placental αvβ3; read-out: IC50 values for the fibrinogen binding assay αvβ3
Counter-ions that a name gives are not always drawn.
Write the number in µM without appending the unit.

These recorded examples may help you get a feel for the data.
| compound | IC50 (µM) |
| --- | --- |
| N=C(N)NCc1ccc2cc(C(=O)NC(CC(=O)O)c3cc(Cl)cc(Cl)c3)cc(=O)n2c1 (racemic) [Compound XLII, trifluoroacetic acid salt] | 4 |
| N=C(N)NCCCCCOc1ccn2c(=O)cc(C(=O)NC[C@H](NS(=O)(=O)c3ccccc3)C(=O)O)cc2c1 [Compound XXXV, Hydrochloride] | 15 |
| O=C(NC[C@H](NS(=O)(=O)c1ccccc1)C(=O)O)c1cc(=O)n2cc(OCCCNc3ncccn3)ccc2c1 [Compound XXV] | 15 |
| O=C(NCc1ccccc1)NCc1ccc2cc(C(=O)NC[C@H](NS(=O)(=O)c3ccccc3)C(=O)O)cc(=O)n2c1 [Compound XLVII] | 0.006 |
| CN([C@@H](CNC(=O)c1cc(=O)n2cc(OCCCNC(=N)N)ccc2c1)C(=O)O)S(=O)(=O)c1ccccc1 [Compound XXIV, Hydrochloride] | 58 |

Challenge: Checklist item: IC50 tested on placental αvβ3 (Homo sapiens, UniProt P05106+P06756), entry NCCCOc1ccc2ccc(C(=O)NC[C@H](NS(=O)(=O)c3ccccc3)C(=O)O)c(=O)n2c1 [Compound III, Trifluoroacetic Acid Salt] , value?
Response given: 96

Challenge: # iterate: Cl.N=C(N)NCc1ccc2cc(C(=O)NC[C@H](NS(=O)(=O)c3ccccc3)C(=O)O)cc(=O)n2c1 [Compound XXVII, Hydrochloride]
Response given: 0.015

Challenge: # iterate: NCCCCOc1ccc2cc(C(=O)NC[C@H](NS(=O)(=O)c3ccccc3)C(=O)O)cc(=O)n2c1 [Compound XVII, Trifluoroacetic Acid Salt]
Response given: 5.1

Challenge: # iterate: N=C(N)N1CCN(c2ccn3c(=O)c(C(=O)NC(CC(=O)O)c4ccccc4)ccc3c2)CC1.O=C(O)C(F)(F)F (racemic) [Compound XL, Trifluoroacetic Acid Salt]
Response given: 1.9

Challenge: # iterate: O=C(O)CC(NC(=O)c1ccc2ccc(OCCCNC(=O)NCc3ccccc3)cn2c1=O)c1ccccc1 (racemic) [Compound X]
Response given: 67

Challenge: # iterate: N=C(N)NCCCOc1ccc2ccc(NC(=O)NC[C@H](NS(=O)(=O)c3ccccc3)C(=O)O)c(=O)n2c1 [Compound IX, Trifluoroacetate Salt]
Response given: 1.3

Origin of measurements: patent US6630488B1
